- measurementDescription: Cmax in rat at 5 mg/kg
- Type: ADME, organism-based
- Set-up: dose 5 mg/kg
- particulars: in vivo
assayMetric: Cmax (nM)

{"molecule": "COC(=O)N[C@H](C(=O)N1CCC[C@H]1c1ncc(-c2ccc3c(c2)O[C@@H](c2ccccc2)n2c-3cc3cc(-c4cnc([C@@H]5CCCN5C(=O)[C@@H](NC(=O)OC)C5CCOCC5)[nH]4)ccc32)[nH]1)C1CCOCC1", "observedResult": 20}

* * *

# key: entry, value: log10 of EC90
- tgt: Nonstructural protein 5A (Hepatitis C virus) (UniProt Q5L478)
- Sequence (Q5L478 as listed by the source): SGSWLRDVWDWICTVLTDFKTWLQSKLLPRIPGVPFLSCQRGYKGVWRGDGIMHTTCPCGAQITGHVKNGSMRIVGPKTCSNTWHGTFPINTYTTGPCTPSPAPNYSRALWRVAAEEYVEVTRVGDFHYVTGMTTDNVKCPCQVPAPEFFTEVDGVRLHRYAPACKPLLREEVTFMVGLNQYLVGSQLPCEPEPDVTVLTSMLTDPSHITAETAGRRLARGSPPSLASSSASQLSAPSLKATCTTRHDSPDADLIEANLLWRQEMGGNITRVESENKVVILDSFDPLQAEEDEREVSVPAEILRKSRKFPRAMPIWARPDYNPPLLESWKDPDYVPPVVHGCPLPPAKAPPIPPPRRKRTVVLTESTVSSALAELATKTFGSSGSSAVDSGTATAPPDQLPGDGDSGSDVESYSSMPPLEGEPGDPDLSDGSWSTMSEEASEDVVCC
- measurementDescription: Inhibition of wild type HCV genotype 1a NS5A assessed as reduction in viral RNA level by cell based real time PCR method
- particulars: Hepatitis C virus subtype 1a
assayMetric: log10 of EC90 (log10 of the value in nM)

{"molecule": "CCN(CC)[C@@H](C(=O)N1CCC[C@H]1c1ncc(-c2ccc3c(c2)O[C@@H](c2ccccc2)n2c-3cc3cc(-c4cnc([C@@H]5CCCN5C(=O)[C@@H](c5ccccc5)N(CC)CC)[nH]4)ccc32)[nH]1)c1ccccc1", "assayMetric": "log10 of EC90", "observedResult": -0.57}
{"molecule": "CN(C)[C@@H](C(=O)N1CCC[C@H]1c1ncc(-c2ccc3c(c2)O[C@@H](c2ccccc2)n2c-3cc3cc(-c4cnc([C@@H]5CCCN5C(=O)[C@@H](c5ccccc5)N(C)C)[nH]4)ccc32)[nH]1)c1ccccc1", "assayMetric": "log10 of EC90", "observedResult": -0.52}
{"molecule": "O=C([C@H]1CCCO1)N1CCC[C@H]1c1ncc(-c2ccc3c(c2)O[C@@H](c2ccccc2)n2c-3cc3cc(-c4cnc([C@@H]5CCCN5C(=O)[C@H]5CCCO5)[nH]4)ccc32)[nH]1", "assayMetric": "log10 of EC90", "observedResult": 0.00}
{"molecule": "CN(C)[C@@H](C(=O)N1CCC[C@H]1c1ncc(-c2ccc3c(c2)O[C@@H](c2ccccc2)n2c-3cc3cc(-c4cnc([C@@H]5CCCN5C(=O)[C@@H](c5ccc(F)cc5)N(C)C)[nH]4)ccc32)[nH]1)c1ccc(F)cc1", "assayMetric": "log10 of EC90", "observedResult": -0.01}
{"molecule": "COC(=O)N[C@@H](CC1CCOCC1)C(=O)N1CCC[C@H]1c1ncc(-c2ccc3c(c2)O[C@@H](c2ccccc2)n2c-3cc3cc(-c4cnc([C@@H]5CCCN5C(=O)[C@H](CC5CCOCC5)NC(=O)OC)[nH]4)ccc32)[nH]1", "assayMetric": "log10 of EC90", "observedResult": -1.00}
{"molecule": "COC(=O)N[C@@H](C)C(=O)N1CCC[C@H]1c1ncc(-c2ccc3c(c2)O[C@@H](c2ccccc2)n2c-3cc3cc(-c4cnc([C@@H]5CCCN5C(=O)[C@H](C)NC(=O)OC)[nH]4)ccc32)[nH]1", "assayMetric": "log10 of EC90", "observedResult": -1.38}
{"molecule": "COC(=O)N[C@H](C(=O)N1CCC[C@H]1c1ncc(-c2ccc3c(c2)O[C@@H](c2ccccc2)n2c-3cc3cc(-c4cnc([C@@H]5CCCN5C(=O)[C@@H](NC(=O)OC)C5CCCCC5)[nH]4)ccc32)[nH]1)C1CCCCC1", "assayMetric": "log10 of EC90", "observedResult": -1.00}
{"molecule": "COC(=O)N[C@H](C(=O)N1CCC[C@H]1c1ncc(-c2ccc3c(c2)O[C@@H](c2ccccc2)n2c-3cc3cc(-c4cnc([C@@H]5CCCN5C(=O)[C@@H](NC(=O)OC)C5CCOCC5)[nH]4)ccc32)[nH]1)C(C)C", "assayMetric": "log10 of EC90", "observedResult": -1.22}
{"molecule": "COCC[C@H](NC(=O)OC)C(=O)N1CCC[C@H]1c1ncc(-c2ccc3c(c2)O[C@@H](c2ccccc2)n2c-3cc3cc(-c4cnc([C@@H]5CCCN5C(=O)[C@H](CCOC)NC(=O)OC)[nH]4)ccc32)[nH]1", "assayMetric": "log10 of EC90", "observedResult": -1.21}
